Origin of measurements: ChEMBL document CHEMBL4043136

target desc: C-8 sterol isomerase ERG2 (Saccharomyces cerevisiae S288c) (UniProt P32352)
Sequence (P32352 whole entry, looked up): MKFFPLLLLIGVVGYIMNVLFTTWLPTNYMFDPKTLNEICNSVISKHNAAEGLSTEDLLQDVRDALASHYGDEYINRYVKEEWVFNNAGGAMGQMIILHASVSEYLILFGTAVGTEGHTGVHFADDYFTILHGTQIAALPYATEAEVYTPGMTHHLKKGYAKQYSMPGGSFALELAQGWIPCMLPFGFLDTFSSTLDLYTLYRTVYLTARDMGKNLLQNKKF
experimental protocol: Inhibition of yeast sterol-delta8/7-isomerase assessed as accumulation of cholesta-8,14-dien-3beta-ol at 1 uM
The source made the active and inactive calls. No cut-off for these calls is given here.
measured endpoint: inhibition

Use these answered entries as a reference point.
INSERT INTO measurements (smiles_text, obs_value) VALUES
  ('CC(C)=CCN1CCCN(Cc2ccccc2)[C@H](Cc2ccccc2)C1', 'inactive'),
  ('COc1ccc(CN2CCCN(Cc3ccccc3)[C@@H](Cc3ccccc3)C2)cc1', 'Active'),
  ('C[C@@H]1CN(CC2CCCCC2)CCCN1Cc1ccccc1', 'inactive'),
  ('CC(C)[C@H]1CN(CC2CCCCC2)CCCN1Cc1ccccc1', 'Active'),
  ('c1ccc(C[C@@H]2CN(Cc3ccccc3)CCCN2Cc2ccccc2)cc1', 'Active');

Task: # query: inhibition of entry "COc1ccc(CN2CCCN(Cc3ccccc3)[C@H](Cc3ccccc3)C2)cc1"
Result: Active

Task: # query: inhibition of entry "C[C@H]1CN(CC2CCCCC2)CCCN1Cc1ccccc1"
Result: inactive

Task: # query: inhibition of entry "C[C@@H]1CN(CCCCc2ccccc2)CCCN1Cc1ccccc1"
Result: inactive

====

target desc: C-8 sterol isomerase ERG2 (Saccharomyces cerevisiae S288c) (UniProt P32352)
experimental protocol: Inhibition of yeast sterol-delta8/7-isomerase assessed as accumulation of cholesta-5,7-dien-3beta-ol at 1 uM
Active and inactive are the calls of the source. The rule behind the calls is not given here.
Allowed answers: True (active), False (inactive)

Task: Any idea what this test logged for "c1ccc(CCCCN2CCCN(Cc3ccccc3)[C@H](Cc3ccccc3)C2)cc1" ?
Result: True

Task: Any idea what this test logged for "c1ccc(CCCN2CCCN(Cc3ccccc3)[C@@H](Cc3ccccc3)C2)cc1" ?
Result: True

Task: Any idea what this test logged for "C[C@@H]1CN(CCCCc2ccccc2)CCCN1Cc1ccccc1" ?
Result: True

Task: Any idea what this test logged for "CCCCN1CCCN(Cc2ccccc2)[C@@H](Cc2ccccc2)C1" ?
Result: True

Task: Any idea what this test logged for "C[C@H]1CN(CCCCc2ccccc2)CCCN1Cc1ccccc1" ?
Result: True

Task: Any idea what this test logged for "c1ccc(CCN2CCCN(Cc3ccccc3)[C@H](Cc3ccccc3)C2)cc1" ?
Result: True

Task: Any idea what this test logged for "CN1CCCN(Cc2ccccc2)[C@H](Cc2ccccc2)C1" ?
Result: True

Task: Any idea what this test logged for "CCCCN1CCCN(Cc2ccccc2)[C@@H](C)C1" ?
Result: True

Task: Any idea what this test logged for "COc1ccc(CN2CCCN(Cc3ccccc3)[C@@H](C(C)C)C2)cc1" ?
Result: True

Task: Any idea what this test logged for "c1ccc(CCCCN2CCCN(Cc3ccccc3)[C@@H](Cc3ccccc3)C2)cc1" ?
Result: True

Task: Any idea what this test logged for "COc1ccc(CN2CCCN(Cc3ccccc3)[C@@H](Cc3ccccc3)C2)cc1" ?
Result: True

Task: Any idea what this test logged for "c1ccc(C[C@H]2CN(Cc3ccccc3)CCCN2Cc2ccccc2)cc1" ?
Result: True

Task: Any idea what this test logged for "CCCCN1CCCN(Cc2ccccc2)[C@H](C)C1" ?
Result: False

Task: Any idea what this test logged for "C[C@H]1CN(CC2CCCCC2)CCCN1Cc1ccccc1" ?
Result: True

Task: Any idea what this test logged for "CCCCN1CCCN(Cc2ccccc2)[C@H](Cc2ccccc2)C1" ?
Result: True

Task: Any idea what this test logged for "c1ccc(CCCN2CCCN(Cc3ccccc3)[C@H](Cc3ccccc3)C2)cc1" ?
Result: False
